The reported measurements were obtained from PubChem BioAssay (NCI).

Each entry below carries its reported growth.
Tested on: HCT-15 colon
assay-text: NCI-60 one-dose screen, 48 h (100 = growth as untreated, 0 = no growth, -100 = all killed)
measurement-conditions: 10 µM unless noted
The panel holds about 83,000 compounds, 20% with a hit somewhere; the sample as a whole holds those more often.
Give just the numeric value; % need not be written.

The cases that follow already have their growth on record.
Clc1ccc(C2=NN(c3ccc(Cl)cc3)C(c3cccc(Nc4ccnc5cc(Cl)ccc45)c3)C2)cc1 (stereo not given)	85.2
Oc1c(Cl)cc(Cl)c(Cl)c1Cc1c(O)c(Cl)cc(Cl)c1Cl	11.5
Cc1ccc2nc(-c3ccc(N(C)C)c(Br)c3)cn2c1	33.9
CC(=O)Nc1cc2c3c(cccc3c1)-c1ccccc1-2	79.4
COc1cc(/C=C/c2cc(/C=C/c3ccc(O)c(OC)c3)n(C(=O)Cc3ccccc3)n2)ccc1O	6.11

growth for Fc1ccc(-c2nn3c(-c4cc(C(F)(F)F)cc(C(F)(F)F)c4)nnc3s2)cc1 is 89.7

growth for O=C1CSC(c2ccccc2Cl)N1c1nnc(Cn2nnc3ccccc32)o1 (stereo not given) is 74.8

growth for COc1cnc2c(c1)C(=O)c1c-2n(CCCN2CCCC2)c(=O)c2cc(F)ccc12 is -18.9

growth for O=c1oc2c(cc1-c1ccc([N+](=O)[O-])cc1)C(O)Oc1ccccc1-2 (stereo not given) is 92.2

growth for COc1cnc2c(c1)C(=O)c1c-2n(CCCN2CCC(O)CC2)c(=O)c2cc(F)ccc12 is 7.5

* * *

Test system: SN12C renal
assay-text: NCI-60 one-dose screen, 48 h (100 = growth as untreated, 0 = no growth, -100 = all killed)
measurement-conditions: 10 µM unless noted
About 83,000 compounds went through this panel and 20% of them were active in at least one assay; those are over-represented in the sample as a whole. Calls of active or inactive are those of the source. The calls were made as follows: active = growth percent below 10; inactive = the rest.
Each entry below carries its reported growth.

COc1ccc2nc(-c3ccc(Cl)cc3)cc(-c3nnc(SCC(=O)Nc4ccc(C(C)=O)cc4)n3-c3ccccc3)c2c1	114% (inactive)
CCOC(=O)C(Br)=P(c1ccccc1)(c1ccccc1)c1ccccc1	101% (inactive)

growth for COc1cc(/C=C/C(=O)c2c(C)n([O-])c3ccccc3[n+]2=O)cc(OC)c1OC is 54.6% (inactive)

growth for COc1cc(/C=C/C(=O)C(C(=O)/C=C/c2ccc(OC(=O)CCNc3nnc(C)s3)c(OC)c2)C(=O)CCNc2nnc(C)s2)ccc1OC(=O)CCNc1nnc(C)s1 is -33.9% (active)

growth for COc1ccc(Oc2ccccc2NC(=O)CNC(=O)c2cccc3ccccc23)cc1 is 46.7% [5 µM] (inactive)

growth for C[C@H]1O[C@@H](O[C@H]2[C@@H](O)C[C@H](O[C@H]3[C@@H](O)C[C@H](O[C@H]4CC[C@]5(C)C6C[C@@H](O)[C@]7(C)[C@@H](C8=CC(=O)OC8)CC[C@]7(O)C6CC[C@@H]5C4)O[C@@H]3C)O[C@@H]2C)C[C@H](O)[C@@H]1O (some centres undefined) is -61.7% (active)

growth for CC(=O)Nc1cc2c3c(cccc3c1)-c1ccccc1-2 is 31.6% (inactive)

growth for Clc1ccc(C2c3ccccc3-c3nccn32)c(Cl)c1 (centres undefined) is 85.4% (inactive)

growth for O=C(C(=O)c1cc(Br)ccc1O)c1cc(Br)ccc1O is 59.4% (inactive)

growth for Oc1c(Cl)cc(Oc2cc(Cl)c(O)c(CN3CCOCC3)c2)cc1CN1CCOCC1 is 95.4% (inactive)

growth for COc1cc(/C=C2\CN(C)CC3=C2Nc2nc(SC)[nH]c(=O)c2C3c2cc(OC)c(OC)c(OC)c2)cc(OC)c1OC (centres undefined) is 24.2% (inactive)

growth for Nc1ccc2c(c1)Cc1cc(Cl)c(Cl)cc1-2 is 57.2% (inactive)

growth for Nc1ccn(C2O[C@H](CO)[C@@H](O)[C@@H]2O)c(=O)n1 (some centres undefined) is 37.1% (inactive)

* * *

Each entry below carries its reported growth.
Test system: HOP-62 NSCLC
assay-text: NCI-60 one-dose screen, 48 h (100 = growth as untreated, 0 = no growth, -100 = all killed)
measurement-conditions: 10 µM unless noted
Compounds without any hit were thinned out: in the full panel of roughly 83,000, 20% have a hit.
Give just the numeric value; % need not be written.

O=C1/C(=C/c2ccccc2Cl)CCc2ccccc21	106
COc1ccc(C2CC(c3ccc4c(c3)OCO4)=NN2C=O)cc1 (stereo unspecified)	102

growth of COc1cc(C2CC(c3ccc(C)cc3)=NN2C=O)ccc1OCCN(C)C (stereo unspecified) , assay on HOP-62 NSCLC, is 87.9

growth of CCC(=O)Nc1cc2c(cc1Cl)-c1ccccc1C2 , assay on HOP-62 NSCLC, is 97.6

growth of CC1CN(/N=C/c2ccc([N+](=O)[O-])o2)C(=N)O1 (stereo unspecified) , assay on HOP-62 NSCLC, is 103

growth of COc1ccc2c3c(ccc2c1)C(=O)/C(=C\O)CC3 , assay on HOP-62 NSCLC, is 114

growth of COc1cc(/C=N/NC(=O)c2ccc(C(F)(F)F)nc2Nc2cc(Cl)ccc2C)cc(OC)c1OC , assay on HOP-62 NSCLC, is 99.7

growth of COc1cccc(N2CCN(CC(=O)N3CCN(c4nnc(-c5ccc(Cl)cc5)c(-c5ccc(Cl)cc5)n4)CC3)CC2)c1 , assay on HOP-62 NSCLC, is 95.9

growth of Nc1nc(NC2CC2)c2ncn(C3C=CC(CO)C3)c2n1 (stereo unspecified) , assay on HOP-62 NSCLC, is 104

growth of CCCCN=C(N)c1ccc(OCCSCCOc2ccc(C(N)=NCCCC)cc2)cc1 , assay on HOP-62 NSCLC, is 67.7

growth of Cc1sc2nc(NCc3ccccc3)[nH]c(=O)c2c1C , assay on HOP-62 NSCLC, is 39.2

* * *

System: OVCAR-8 ovarian
assay-text: NCI-60 one-dose screen, 48 h (100 = growth as untreated, 0 = no growth, -100 = all killed)
measurement-conditions: 10 µM unless noted
This is part of a sample that, as a whole, favours compounds with a hit. Of some 83,000 tested, about 20% had one in any assay. Active and inactive are the calls of the source. The calls were made as follows: active = growth percent below 10; inactive = the rest.
Each entry below carries its reported growth.

COc1cc(NC(C)CCCN)c2nc(C)ccc2c1Oc1ccc(F)cc1 (configuration not stated)	77.4% (inactive)

growth for COc1ccc(C(=O)/C=C/c2cccc(Nc3ccnc4cc(Cl)ccc34)c2)cc1 is 10.2% (inactive)

growth for CCOc1cc(/C=C/C(=O)CC(=O)/C=C/c2ccc(OC(=O)CNc3nc4ccc(OC)cc4s3)c(OCC)c2)ccc1OC(=O)CNc1nc2ccc(OC)cc2s1 is 28.6% (inactive)

growth for c1ccc(CN=C(NCc2ccccc2)NCc2ccccc2)cc1 is 56.4% (inactive)

growth for COC(=O)[C@H](Cc1cn(C)cn1)NC(=O)[C@H](C)NC(=O)Nc1cc(C(F)(F)F)cc(C(F)(F)F)c1 is -68.1% [100 µM] (active)

growth for COc1ccc(C(=O)COc2cccc(/C=C3\CSc4ccc(Cl)cc4C3=O)c2)cc1 is 78.4% (inactive)

growth for COc1cc(/C=C/C(=O)C(C(=O)/C=C/c2ccc(OC(=O)CCNc3nnc(C)s3)c(OC)c2)C(=O)CCNc2nnc(C)s2)ccc1OC(=O)CCNc1nnc(C)s1 is 7.54% (active)

* * *

System: SK-MEL-5 melanoma
assay-text: NCI-60 one-dose screen, 48 h
measurement-conditions: 10 µM unless noted
Compounds without any hit were thinned out: in the full panel of roughly 83,000, 20% have a hit. Active and inactive are the calls of the source. Rule for the calls: active = growth percent below 10; inactive = the rest.
Your reply should match one of these outcome classes. active, inactive

Below are worked cases with known answers.
O=C1Nc2ccc(C(=O)O)c(O)c2C1=O	inactive
CC(=O)Nc1c(Cl)cc2c(c1Cl)Cc1cc([N+](=O)[O-])ccc1-2	inactive
COc1ccc2c(c1)sc1nc(-c3ccc(Br)cc3)cn12	inactive

Request: For COc1ccc(-c2cc(-c3cccnc3)nc(S(=O)(=O)CC(=O)Nc3ccc(C)cc3)c2C#N)cc1OC , which call appears in the assay record?
Response: inactive

Request: For CC(C)OP(=O)(OC(C)C)c1ncc(-c2ccc(C(F)(F)F)cc2)c(NC2CCCCCC2)n1 , which call appears in the assay record?
Response: active

* * *

Tested on: OVCAR-8 ovarian
assay-text: NCI-60 one-dose screen, 48 h
measurement-conditions: 10 µM unless noted
This is part of a sample that, as a whole, favours compounds with a hit. Of some 83,000 tested, about 20% had one in any assay. Calls of active or inactive are those of the source. The calls were made as follows: active = growth percent below 10; inactive = the rest.
Your reply should match one of these outcome classes. Yes for active, No for inactive

Below are worked cases with known answers.
CC(C)CNc1nc(N=[N+]=[N-])nc(NCC(C)C)n1	No
COc1ccc2c(c1)CC[C@@H]1[C@@H]2CC[C@]2(C)[C@@H](O)C(=O)C[C@@H]12	No
NS(=O)(=O)c1ccc(-n2ncc3c(NC4CCCCC4)ncnc32)cc1	No
CC1(C)CC2(C)CC(=O)C1C(C(=O)O)C2C(=O)O (stereo unspecified)	No
O=Nc1c2cccnc2n2nnc3ccc(Cl)cc3c12	Yes
NC(=O)NS(=O)(=O)c1ccc(N2N=C(C(F)(F)F)CC2c2cc(C(F)(F)F)cc(C(F)(F)F)c2)cc1 (stereo unspecified)	No

Request: For CC(=O)Nc1cc(C(c2ccccc2)c2ccccc2)cc(C(c2ccccc2)c2ccccc2)c1C , which call appears in the assay record?
Response: No

Request: For O=C(COc1ccc(/C=C2\Oc3ccc4ccccc4c3C2=O)cc1)c1ccc([N+](=O)[O-])cc1 , which call appears in the assay record?
Response: No

Request: For CSc1nc2nc3c(nc2c(=O)n1C)C(=O)c1ccccc1C3=O , which call appears in the assay record?
Response: Yes

Request: For O=C(O)c1ccc2cccnc2c1O , which call appears in the assay record?
Response: No

Request: For Cc1ccc(S(=O)(=O)NCCN2c3nc4ccccc4cc3Sc3cc4ccccc4nc32)cc1 , which call appears in the assay record?
Response: No
